# System Tested: human cloned 5-HT2C receptor, expressed in CHO cells (Homo sapiens, UniProt P28335)
# Construct: expressed in transfected cells; host or cells: CHO cells
# Sequence (P28335 33-458): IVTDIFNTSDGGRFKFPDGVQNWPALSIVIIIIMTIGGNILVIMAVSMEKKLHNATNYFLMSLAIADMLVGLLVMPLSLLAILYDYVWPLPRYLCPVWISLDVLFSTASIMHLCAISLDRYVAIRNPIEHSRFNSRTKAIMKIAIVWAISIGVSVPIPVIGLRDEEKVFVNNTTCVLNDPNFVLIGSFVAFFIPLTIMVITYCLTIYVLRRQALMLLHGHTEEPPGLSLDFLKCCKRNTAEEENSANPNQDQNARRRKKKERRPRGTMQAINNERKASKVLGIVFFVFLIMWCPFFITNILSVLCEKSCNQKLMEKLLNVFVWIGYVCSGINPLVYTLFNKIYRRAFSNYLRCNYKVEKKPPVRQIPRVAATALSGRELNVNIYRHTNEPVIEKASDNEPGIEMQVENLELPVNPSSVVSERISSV
# Protocol Summary: In vitro radioligand binding affinity for 5-HT2C receptor ([3H]mesulergine)
# Condition Label: human cloned 5-HT2C receptor in CHO cells, [3H]mesulergine; read-out: h-5HT2C (converted)

{"Compound": "CC(=O)N1[C@@H](CN(C)C)C[C@@H]2c3ccccc3Cc3ccc(F)cc3[C@H]21 [36b]", "IC50": "> 1000 nM"}
{"Compound": "CSC1=NC[C@H]2C[C@@H]3c4ccccc4Cc4ccc(F)cc4[C@H]3N12", "IC50": "> 1000 nM"}
{"Compound": "CN(C)C[C@@H]1C[C@@H]2c3ccccc3Cc3ccc(F)cc3[C@H]2[S@@+]1[O-]", "IC50": "> 10000 nM"}
{"Compound": "CN1C[C@H]2C[C@@H]3c4ccccc4Cc4ccc(F)cc4[C@H]3N2C1=O", "IC50": "> 1000 nM"}
